- ASSAY_SUMMARY: Peptide stability in simulated intestinal fluid (SIF)
- Type: in vitro ADME
- EXPERIMENTAL_PARAMETERS: pig, simulated intestinal fluid (SIF) with porcine pancreatin, Table 3-2, porcine pancreatin, pH 6.8, 37° C., 10 μM, 4 h, read-out: SIF (% remaining 4 h)
*1 amine or outer side, *2 acyl side, *3 side chain or, on linkers, in order; H or OH if unused. Where a SMILES comes first, the peptide text is derived from it. Bridges are numbered along the chain shown (N, C = ends). [ ]: non-standard residue; d: D form. Pipz(1-CH2CO,4-CH2CH2NH) = O=C(CN1CCN(CCN[*:1])CC1)[*:2]; 2Nal = N[C@@H](Cc1ccc2ccccc2c1)C(=O)O; AEF = NCCOc1ccc(C[C@H](N)C(=O)O)cc1; αMeL = CC(C)C[C@](C)(N)C(=O)O; CH2COCH2 = O=C(C[*:1])C[*:2]
MEASURED_ATTRIBUTE: remaining at 4 h, 10 μM (%)
State the answer as a number, implicitly in %.

Input line: Look up remaining at 4 h, 10 μM: CC(C)C[C@]1(C)NC(=O)[C@H](Cc2ccc3ccccc3c2)NC(=O)[C@H](Cc2ccc(OCCN)cc2)NC(=O)[C@@H]2CSCC(=O)CSC[C@H](NC(=O)[C@H](CO)NC(=O)CN3CCN(CCNC(=O)CC[C@@H](C(=O)N[C@H](CCCNC(=N)N)C(N)=O)NC1=O)CC3)C(=O)N[C@@H](Cc1c[nH]c3ccccc13)C(=O)N[C@@H](CCC(N)=O)C(=O)N2 [Compound 90] ([Pipz(1-CH2CO,4-CH2CH2NH)]SCWQC[AEF][2Nal][αMeL]E[dR]-NH2; linker 3-6 via CH2COCH2; lactam N-10)
Output line: 67

Measured values drawn from patent US20250154198A1 for this set.
